# test.description: LogP by HPLC on reversed phase columns (EEC directive 79/831 Annex V.A8)
# Format: physicochemical
# run.parameters: [a] LC-UV, acidic range, 0.1% formic acid in water and acetonitrile as eluent
recorded.metric: LogP

// solved cases for LogP follow
In [3]: df
Out[3]:
                                   compound  obs_value
0  OC(Cn1cncn1)(c1ccc(F)cc1F)C1(Oc2cccc(Cl)c2)CC1 (racemic)   3.55^[a]
1    O=C(c1ccc(Cl)cc1F)C1(Oc2ccc(Cl)cc2)CC1   4.75^[a]
2  Fc1ccc(C2(C3(Oc4ccccc4F)CC3)CO2)c(F)c1 (centres unmarked)   3.99^[a]
3  OC(Cn1cncn1)(c1ccc(Cl)cc1F)C1(Oc2ccc(Cl)cc2F)CC1 (racemic)   3.89^[a]
4       O=C(c1ccc(F)cc1F)C1(Oc2ccccc2Br)CC1       4.14

[in] I would be grateful if you could share the reported LogP for Fc1ccc(C(Cn2cncn2)(OCC2CC2)C2(Oc3ccc(Cl)cc3)CC2)c(F)c1 (racemic) .
[out] 4.71^[a]

[in] I would be grateful if you could share the reported LogP for OC(Cn1cncn1)(c1ccc(F)cc1F)C1(Oc2ccc(OC(F)(F)F)cc2)CC1 (racemic) .
[out] 3.70^[a];

[in] I would be grateful if you could share the reported LogP for Cc1cc(I)ccc1OC1(C(O)(Cn2cncn2)c2ccc(F)cc2F)CC1 (racemic) .
[out] 4.25^[a];
